Record: compiled pKi on 5-hydroxytryptamine receptor 7 (Homo sapiens) from multiple reports.
Answers are plain numbers, as −log10 of the molar value.

>>> val("CN1CCc2c(c3cccc4c3n2CCc2ccccc2-4)C1")
6.71

Could you tell me pKi for each of these molecules? They are listed below.
1. CC(C)c1nc2c(N3CCNCC3)ccnc2n1Cc1cccc(Cl)c1
2. O=C1c2ccccc2S(=O)(=O)N1CCCCCCN1CCN(c2ncccn2)CC1
3. Cc1ccccc1N1CCN(CCCCn2cnc3c(cnc4ccccc43)c2=O)CC1
4. O=S(=O)(NC1CCN(CCOc2ccccc2-c2ccccc2)CC1)c1cc(F)ccc1F

A.
[5.15, 7.46, 6.53, 8.15]

----------
Literature compilation of Ki measurements on UniProt:P34969.
Class assignment keyed on Ki, ranges A (below 0.01 µM), B (0.01 µM to below 0.04 µM), C (0.04 µM or more)

Worked examples follow.
>>> assigned_class("NCCCN(CCCCN1CCc2ccccc2C1)S(=O)(=O)c1ccccc1")
"C"
>>> assigned_class("O=C(c1ccc(F)cc1)C1CCN(CCc2ccc(I)cc2)CC1")
"A"
>>> assigned_class("COc1cccc(CC2NCCc3c2[nH]c2ccccc32)c1 (stereo unspecified)")
"B"
>>> assigned_class("NC(N)=NC(=O)c1ccc2c(c1)C(N)c1ccccc1-2 (stereo unspecified)")
"C"
>>> assigned_class("O=C1Nc2ccccc2C1CCCCN1CCN(c2ccc(F)cc2)CC1 (stereo unspecified)")
"A"
>>> assigned_class("O=S(=O)(NCCCCN1CCc2ccccc2C1)c1cccc2cccnc12")
"C"
>>> assigned_class("NC(N)=NC(=O)c1ccc2c(c1)C(O)c1cccc(F)c1-2 (stereo unspecified)")
"B"
>>> assigned_class("COc1ccc2[nH]c3c(c2c1)CCN=C3c1cc([N+](=O)[O-])cn1C")
"C"
>>> assigned_class("C[C@H](Nc1cc(NCCc2ccccc2)ncn1)c1ccccc1")
"B"

Q. # classify by Ki band: CC(C)(CCCN1CC[C@@H]2CCCC[C@H]2C1)S(=O)(=O)c1ccccc1 (racemic)
A. A

----------
Study the reported pKi values for 5-hydroxytryptamine receptor 7 (Homo sapiens) given below; they originate from different publications.
pKi: −log10 of the molar value.
Quick rule: pKi of at least 7 means class 1, below that means class 0.

Here are 3 molecules together with their reported answers.
>>> assigned_class("COc1cccc(-n2c(=O)n(CCN3CCN(c4ccccc4)CC3)c3ccccc32)c1")
"class 0"
>>> assigned_class("O=C(CCN1CCN(Cc2ccccc2)CC1)N1CCN(c2ccccc2)CC1")
"class 1"
>>> assigned_class("COc1cccc(N2CCN(Cc3ccccc3-c3ccccc3)CC2)c1")
"class 0"

From here, focus on the item given below.
Q. Quick check: does O=S(=O)(NC1CCN(CC(O)COc2ccccc2-c2ccccc2)CC1)c1ccc(F)cc1 (stereo not given) have pKi greater than or equal to 7?
A. class 1

----------
Hi, quick share: literature pKi data for 5-hydroxytryptamine receptor 7 (Homo sapiens, UniProt P34969), several sources combined.
pKi: −log10 of the molar value.
If the reported pKi equals or exceeds 7, assign rule met. If not, assign rule not met.

>>> assigned_class("COc1ccccc1N1CCN(Cc2ccccc2-c2cccc(Cl)c2)CC1")
"rule not met"
>>> assigned_class("CC(C)c1ccccc1N1CCN(CCCCC(=O)N2Cc3ccccc3C[C@H]2C(N)=O)CC1")
"rule met"

Please turn your attention to the following entry.
Q. pKi >= 7 for `Cc1ccc2[nH]cc(CCNCc3ccc(-c4ccc(O)cc4)o3)c2c1` ?
A. rule met

----------
Multiple publications report pKi for 5-hydroxytryptamine receptor 7 (Homo sapiens, UniProt P34969); what follows is a combined list.
One number for each entry, as −log10 of the molar value.

>>> val("O=S(=O)(c1cccc2ncccc12)N1CCC(CCN2CCN(c3cccc(C(F)(F)F)c3)CC2)CC1")
7.25
>>> val("O=C(CCOCCN1CCN(c2ccccc2-c2ccccc2)CC1)NCc1ccncc1")
7.28
>>> val("O=C1c2ccccc2S(=O)(=O)N1CCCCCCN1CCN(c2cccc(Cl)c2)CC1")
6.63
>>> val("Cc1cccc2c1C(O)c1cc(C(=O)N=C(N)N)ccc1-2 (stereo not given)")
7.06
>>> val("CCCC(Sc1cc(Cl)ccc1Cl)c1nc(N)nc(N2CCN(C)CC2)n1 (racemic)")
5.21

I need pKi for every entry listed below, if you could help.
1. CC(Nc1nc(N)nc(NCCc2ccccc2)n1)c1ccc(F)cc1 (stereo not given)
2. Cc1ccccc1N1CCN(Cc2ccccc2-c2ccccc2)CC1
3. COc1ccccc1N1CCN(CCCNS(=O)(=O)c2ccc3ncccc3c2)CC1
4. O=S(=O)(c1ccccc1)C1(CCCN2CCC(c3ccccc3)C2)CCC1 (racemic)
5. O=C(CCN1CCN(Cc2ccccc2)CC1)N1CCN(c2ccccc2Cl)CC1

A.
1. 8.10
2. 5.76
3. 6.81
4. 8.05
5. 7.30

----------
Compiled literature Ki, tested on 5-hydroxytryptamine receptor 7 (Homo sapiens, UniProt P34969).
Sequence (P34969 whole entry): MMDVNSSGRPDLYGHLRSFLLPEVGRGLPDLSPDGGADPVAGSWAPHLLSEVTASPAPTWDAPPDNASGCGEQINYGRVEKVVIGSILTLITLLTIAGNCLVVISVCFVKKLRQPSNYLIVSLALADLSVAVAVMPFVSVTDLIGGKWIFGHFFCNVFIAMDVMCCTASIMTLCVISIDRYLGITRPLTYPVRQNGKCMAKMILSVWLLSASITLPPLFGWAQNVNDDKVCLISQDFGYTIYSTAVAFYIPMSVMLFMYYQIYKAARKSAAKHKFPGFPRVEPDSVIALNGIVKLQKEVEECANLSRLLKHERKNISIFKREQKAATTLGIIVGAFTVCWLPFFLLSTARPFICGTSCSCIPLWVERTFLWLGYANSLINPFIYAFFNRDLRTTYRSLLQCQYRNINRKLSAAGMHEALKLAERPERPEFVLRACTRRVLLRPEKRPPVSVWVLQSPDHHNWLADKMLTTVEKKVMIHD
Answers are plain numbers, in nM.

>>> val("COc1ccc(-c2ccccc2N2CCN(CCCCCC(=O)NCc3ccncc3)CC2)cc1")
11.2
>>> val("CC(C)c1ccccc1OCCN1CCC(NS(=O)(=O)c2ccc(Cl)s2)CC1")
24
>>> val("CC(C)c1ccccc1OCCN1CCC(NS(=O)(=O)c2cccc3ncccc23)CC1")
7
>>> val("CN1C(=O)C2(CCCCN3CCc4sccc4C3)CCCc3cccc1c32 (stereo unspecified)")
9.77

Please look at the items below and tell me Ki for each one, in order.
1. COc1ccc(/C=C2\NC(=O)N(CCCCN3CCN(c4ccccc4OC)CC3)C2=O)cc1OC1CCCC1
2. C[C@H](Nc1nc(N)nc(NCCOc2ccccc2)n1)c1ccccc1
3. CC1(c2ccc(F)cc2)NC(=O)N(CC(O)CN2CCc3ccccc3C2)C1=O (stereo unspecified)
4. [11CH3]N1C(=O)C2(CCCCN3CCc4sccc4C3)CCCc3cccc1c32 (stereo unspecified)
5. CN(C)Cc1ccc(CNC(=O)CCCCCN2CCN(c3ccccc3-c3ccccc3)CC2)cc1

A.
[1, 3, 888, 9.7, 21]

----------
Hi, quick share: literature log10 Ki data for 5-hydroxytryptamine receptor 7 (Homo sapiens, UniProt P34969), several sources combined.
Values are log10 of Ki in nM.

>>> val("O=S(=O)(NC1CN(CCOc2ccccc2-c2ccccc2)C1)c1cccc(Cl)c1")
1.30

Batch of 6 compounds: report log10 Ki for each.
1. COc1ccc(/C=C2\NC(=O)N(CCCN3CCN(c4cccc(Cl)c4Cl)CC3)C2=O)cc1OC
2. Cc1sc2ncn(CCCCCN3CCN(Cc4ccccc4)CC3)c(=O)c2c1C
3. O=S(=O)(NCCCCN1CCc2ccccc2C1)c1ccc2ccccc2c1
4. COc1ccc(S(=O)(=O)n2cc(C)c3cc(Cl)ccc32)cc1NC1CCN(C)CC1
5. O=S(=O)(NCC1CCN(CCOc2ccccc2-c2ccccc2)CC1)c1ccc(F)cc1
6. Oc1cccc(C2NCCc3c2[nH]c2ccccc32)c1 (configuration not stated)

A.
[1.34, 3.22, 1.81, 3.80, 1.11, 3.04]

Dear colleague, could you please provide log10 Ki for the compounds listed below?
1. CC(C)c1ccccc1OCCN1CCC(NS(=O)(=O)c2cccc(F)c2)CC1
2. CCOc1ccccc1C(=O)NC1CCN(CCOc2cccc(F)c2)CC1
3. O=S(=O)(NC1CCN(CCOc2ccccc2-c2ccccc2)CC1)c1cccc(F)c1
4. NC(N)=NC(=O)c1ccc2c(c1)C1(CC1)c1ccccc1-2

A.
0.95
3.38
1.56
0.69

Please supply log10 Ki for each of the following items, keeping them in order.
1. O=C([C@@H]1CCCN1C(=O)CCCCCN1CCN(c2ccccc2-c2ccccc2)CC1)N1CCCCC1
2. CCN(CCCCN1CCN(c2ccccc2OC)CC1)S(=O)(=O)c1ccc2ncccc2c1
3. C[C@@H]1NC(N)=Nc2cccc(Cl)c21
4. CCC1(CCCCN2CCC(c3ccc(F)cc3)CC2)C(=O)Nc2ccccc21 (configuration not stated)
5. COc1cccc(N2CCN(CC3CCN(c4ncnc5cc(OC)c(OC)cc45)C3)CC2)c1 (configuration not stated)
6. Oc1ccc(-c2ccc(CNCCc3c[nH]c4ccccc34)o2)cc1
7. NC(=O)NCCCCCCN1CCN(c2cccc(Cl)c2)CC1
8. CCc1cccc2c1-c1ccc(C(=O)N=C(N)N)cc1C2(C)O.Cl (configuration not stated)

A.
1: 1.20; 2: 1.61; 3: 0.78; 4: 0.84; 5: 2.37; 6: 3.21; 7: 2.26; 8: 0.36

----------
Assay read-out Ki on 5-hydroxytryptamine receptor 7 (Homo sapiens); records merged from the literature.
Entries whose Ki is below 50 nM take Y; entries at or above 50 nM take N.

Examples from the recorded data:
>>> assigned_class("O=S(=O)(c1cncc2ccccc12)N1CCC(CCN2CCN(c3cccc(F)c3)CC2)CC1")
"N"
>>> assigned_class("O=[N+]([O-])c1ccc(N2CCCN(CCC(O)c3csc4ccccc34)CC2)c(C(F)(F)F)c1 (stereo not given)")
"N"
>>> assigned_class("C[C@H](Nc1cncc(NCCOc2ccccc2)c1)c1ccccc1")
"Y"
>>> assigned_class("CCC1(CCCCN2CCN(c3cccc(Cl)c3)CC2)C(=O)Nc2ccccc21 (stereo not given)")
"Y"

Alright, here's another molecule for you.
Q. Quick check: does `O=S(=O)(NC1CCN(CCOc2ccccc2-c2ccccc2)CC1)c1cccnc1` have Ki under 50 nM?
A. N
